The measurements presented in this section are drawn from paper PMC8982737.

Experiment: in vivo
Settings: female, cynomolgus monkey, iv, 0.1 mg/kg
outcome.measure: clearance (mL/min/kg)
Report as a plain number; the unit mL/min/kg is understood.

-- ask Entry under review: Cn1cnc(Cn2c(=O)[nH]/c(=N\c3cc4cn(C)nc4cc3Cl)n(Cc3cc(F)c(F)cc3F)c2=O)n1 . Reported clearance?
-- reply 0.29

---

Molecular target: chymotrypsin
Assay: Human protease enzyme assay: chymotrypsin
outcome.measure: IC50

-- ask Entry under review: Cn1cnc(Cn2c(=O)[nH]/c(=N\c3cc4cn(C)nc4cc3Cl)n(Cc3cc(F)c(F)cc3F)c2=O)n1 . Reported IC50?
-- reply > 100 µM
